System: Escherichia coli TOP10
Assay: shrunken log2 fold change of peptide-encoding DNA abundance (4.5 h post-induction vs induction); higher = less antimicrobial activity (less host growth inhibition)
Settings: time post-induction: 4.5 h; library: site-saturation at positions 5, 18, 19, 20
measure: shrunken log2 fold change
The reply should be a number, written without any unit.

Asked: Please report shrunken log2 fold change with Escherichia coli TOP10 for item RRIRWRPPRLPRPRPRPFLSPRP .
Given back: -0.0328

Asked: Report shrunken log2 fold change under test system Escherichia coli TOP10 for RRIRIRPPRLPRPRPRPDSEPRP .
Given back: 0.0636

Asked: Check Escherichia coli TOP10 data and give shrunken log2 fold change for RRIRSRPPRLPRPRPRPSAEPRP .
Given back: 0.567

Asked: # lookup: Escherichia coli TOP10 shrunken log2 fold change, key = RRIRCRPPRLPRPRPRPKTPPRP
Given back: 0.827

Asked: Write shrunken log2 fold change of RRIRFRPPRLPRPRPRPIQGPRP ; system used: Escherichia coli TOP10
Given back: 0.0616

Asked: Report shrunken log2 fold change from Escherichia coli TOP10 testing of RRIRQRPPRLPRPRPRPGKHPRP
Given back: 0.0941

Asked: Look up and report measured shrunken log2 fold change (Escherichia coli TOP10) for the following sequence: RRIRTRPPRLPRPRPRPHSCPRP
Given back: -0.0159

Asked: Give shrunken log2 fold change for RRIRKRPPRLPRPRPRPECTPRP tested on Escherichia coli TOP10.
Given back: 3.42

Asked: System Escherichia coli TOP10. Read-out shrunken log2 fold change. Item RRIRVRPPRLPRPRPRPKPEPRP . Report value.
Given back: 0.326

Asked: Enter recorded shrunken log2 fold change with Escherichia coli TOP10 for RRIRSRPPRLPRPRPRPPLNPRP here.
Given back: 0.0261

Asked: Give measured shrunken log2 fold change for RRIRCRPPRLPRPRPRPIDQPRP (Escherichia coli TOP10).
Given back: -0.0719

Asked: Please tell me the measured shrunken log2 fold change for RRIRLRPPRLPRPRPRPDSHPRP ; system: Escherichia coli TOP10.
Given back: -0.46

Asked: Give measured shrunken log2 fold change for RRIRDRPPRLPRPRPRPAQCPRP (Escherichia coli TOP10).
Given back: 0.0665

Asked: GET shrunken log2 fold change where system = Escherichia coli TOP10 and item = RRIRLRPPRLPRPRPRPQRYPRP
Given back: -0.307

Asked: Please report shrunken log2 fold change with Escherichia coli TOP10 for item RRIRGRPPRLPRPRPRPRLCPRP .
Given back: 1.19

Asked: Check Escherichia coli TOP10 data and give shrunken log2 fold change for RRIRYRPPRLPRPRPRPVGQPRP .
Given back: -0.106

Asked: Provide the reported shrunken log2 fold change (system: Escherichia coli TOP10) for RRIRCRPPRLPRPRPRPFASPRP
Given back: 0.0328

Asked: Please look at RRIRCRPPRLPRPRPRPGHKPRP and tell me its recorded shrunken log2 fold change on Escherichia coli TOP10.
Given back: -0.514

Asked: Param request: shrunken log2 fold change | system Escherichia coli TOP10 | item RRIRYRPPRLPRPRPRPKCDPRP
Given back: -0.529

Asked: For Escherichia coli TOP10, give the measured shrunken log2 fold change of the entry RRIRNRPPRLPRPRPRPVFMPRP
Given back: -0.181

Asked: State, for Escherichia coli TOP10, measured shrunken log2 fold change of the sequence listed here: RRIRDRPPRLPRPRPRPCESPRP
Given back: -0.00192

Asked: Return reported shrunken log2 fold change for target or system Escherichia coli TOP10, item RRIRTRPPRLPRPRPRPSHRPRP .
Given back: -0.463

Asked: Name the recorded shrunken log2 fold change of RRIRWRPPRLPRPRPRPSLVPRP , assay system Escherichia coli TOP10.
Given back: -0.0104

Asked: Provide measured shrunken log2 fold change on Escherichia coli TOP10 for RRIRERPPRLPRPRPRPRFHPRP please.
Given back: -0.447

Asked: For Escherichia coli TOP10, give the measured shrunken log2 fold change of the entry RRIRWRPPRLPRPRPRPSSDPRP
Given back: -0.0856

Asked: Name the value of shrunken log2 fold change reported for RRIRARPPRLPRPRPRPVFSPRP when tested on Escherichia coli TOP10.
Given back: -0.0817

Asked: Provide measured shrunken log2 fold change on Escherichia coli TOP10 for RRIRPRPPRLPRPRPRPETGPRP please.
Given back: -0.0114

Asked: Retrieve shrunken log2 fold change on Escherichia coli TOP10; query RRIRPRPPRLPRPRPRPVPWPRP
Given back: 0.548

Asked: With Escherichia coli TOP10 as the test system, provide measured shrunken log2 fold change for this sequence: RRIRKRPPRLPRPRPRPPPRPRP
Given back: 1.32

Asked: # lookup: Escherichia coli TOP10 shrunken log2 fold change, key = RRIRLRPPRLPRPRPRPIAFPRP
Given back: -0.14

Asked: // fetch shrunken log2 fold change; item: RRIRFRPPRLPRPRPRPYECPRP ; system: Escherichia coli TOP10
Given back: -0.0179

Asked: Under Escherichia coli TOP10, report shrunken log2 fold change for RRIRARPPRLPRPRPRPMAWPRP
Given back: 0.662

Asked: For Escherichia coli TOP10, give the measured shrunken log2 fold change of the entry RRIRTRPPRLPRPRPRPHLYPRP
Given back: -0.154

Asked: GET shrunken log2 fold change | system: Escherichia coli TOP10 | item: RRIRSRPPRLPRPRPRPENPPRP
Given back: -0.143

Asked: Provide Escherichia coli TOP10 shrunken log2 fold change reading for RRIRNRPPRLPRPRPRPRYGPRP .
Given back: -0.0289

Asked: Name the recorded shrunken log2 fold change of RRIRMRPPRLPRPRPRPGIAPRP , assay system Escherichia coli TOP10.
Given back: 1.11

Asked: Please look at RRIRGRPPRLPRPRPRPDIPPRP and tell me its recorded shrunken log2 fold change on Escherichia coli TOP10.
Given back: 0.23

Asked: Write down the reported shrunken log2 fold change (system: Escherichia coli TOP10) of RRIRARPPRLPRPRPRPDIHPRP
Given back: 0.145

Asked: State recorded shrunken log2 fold change with Escherichia coli TOP10, entry RRIRSRPPRLPRPRPRPMAHPRP , no comment.
Given back: 0.218

Asked: Report shrunken log2 fold change from Escherichia coli TOP10 testing of RRIRLRPPRLPRPRPRPWIVPRP
Given back: -0.0907

Asked: Give shrunken log2 fold change for this entry on Escherichia coli TOP10: RRIRSRPPRLPRPRPRPHFMPRP
Given back: -0.48

Asked: Report value only: shrunken log2 fold change, Escherichia coli TOP10, RRIRWRPPRLPRPRPRPSNNPRP
Given back: -0.446

Asked: Fetch value of shrunken log2 fold change on Escherichia coli TOP10 for RRIRNRPPRLPRPRPRPYEFPRP .
Given back: 0.121

Asked: # assay system Escherichia coli TOP10: give shrunken log2 fold change of RRIRHRPPRLPRPRPRPCVEPRP
Given back: 0.197

Asked: Quote Escherichia coli TOP10 shrunken log2 fold change for entry RRIRLRPPRLPRPRPRPCTGPRP .
Given back: -0.0081

Asked: Give reported shrunken log2 fold change for RRIRTRPPRLPRPRPRPSRDPRP (Escherichia coli TOP10)
Given back: -0.139

Asked: Fetch value of shrunken log2 fold change on Escherichia coli TOP10 for RRIRCRPPRLPRPRPRPLSPPRP .
Given back: 0.107

Asked: Give the observed shrunken log2 fold change of RRIRQRPPRLPRPRPRPAQPPRP for Escherichia coli TOP10.
Given back: 0.187

Asked: Name the value of shrunken log2 fold change reported for RRIRKRPPRLPRPRPRPLSIPRP when tested on Escherichia coli TOP10.
Given back: -0.0931

Asked: Report value: shrunken log2 fold change, system: Escherichia coli TOP10, sequence: RRIRVRPPRLPRPRPRPSLHPRP
Given back: -0.415

Asked: State measured shrunken log2 fold change of the sequence RRIRPRPPRLPRPRPRPMRQPRP with Escherichia coli TOP10.
Given back: 0.398

Asked: Answer briefly: shrunken log2 fold change recorded on Escherichia coli TOP10 for RRIRPRPPRLPRPRPRPHKTPRP
Given back: -0.0296

Asked: Enter recorded shrunken log2 fold change with Escherichia coli TOP10 for RRIRYRPPRLPRPRPRPQLKPRP here.
Given back: -0.526

Asked: Using Escherichia coli TOP10 as the test system, report measured shrunken log2 fold change of RRIRKRPPRLPRPRPRPHMPPRP .
Given back: -0.175

Asked: Look up and report shrunken log2 fold change, with Escherichia coli TOP10 as system, for RRIRTRPPRLPRPRPRPPVQPRP
Given back: 0.0423

Asked: Write down the reported shrunken log2 fold change (system: Escherichia coli TOP10) of RRIRTRPPRLPRPRPRPCDMPRP
Given back: -0.729

Asked: Fill in shrunken log2 fold change for RRIRNRPPRLPRPRPRPFHEPRP tested with Escherichia coli TOP10.
Given back: -0.00822

Asked: Would you please give the reported shrunken log2 fold change of RRIRNRPPRLPRPRPRPLVCPRP with Escherichia coli TOP10?
Given back: -0.201

Asked: Output reported shrunken log2 fold change of the sequence RRIRHRPPRLPRPRPRPSKPPRP on Escherichia coli TOP10.
Given back: 0.00696

Asked: Give measured shrunken log2 fold change for RRIRMRPPRLPRPRPRPCRPPRP (Escherichia coli TOP10).
Given back: 0.00908

Asked: Please look at RRIRQRPPRLPRPRPRPQDRPRP and tell me its recorded shrunken log2 fold change on Escherichia coli TOP10.
Given back: -0.254

Asked: Lab note: record shrunken log2 fold change of RRIRVRPPRLPRPRPRPTKVPRP tested on Escherichia coli TOP10.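 Also: peptides expressed intracellularly from a pBAD plasmid library in pooled LB shake-flask culture, induced with 0.3% L-arabinose, DNA abundance read by NGS, three biological replicates, DESeq2 with apeglm shrinkage.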
Given back: -0.341

Asked: State shrunken log2 fold change on Escherichia coli TOP10. Entry: RRIRNRPPRLPRPRPRPEKWPRP
Given back: -0.0101
